# target.or.system: ENaC (Epithelial Sodium Channel) (Mus musculus, UniProt Q61180+Q9WU38+Q9WU39)
# Construct: Mouse kidney M-1 cells were cultivated in DMEM containing 5% FCS and 5 μM dexamethasone; endogenous in cells; host or cells: Mouse kidney M-1 cells
# Sequence (Q61180 whole entry): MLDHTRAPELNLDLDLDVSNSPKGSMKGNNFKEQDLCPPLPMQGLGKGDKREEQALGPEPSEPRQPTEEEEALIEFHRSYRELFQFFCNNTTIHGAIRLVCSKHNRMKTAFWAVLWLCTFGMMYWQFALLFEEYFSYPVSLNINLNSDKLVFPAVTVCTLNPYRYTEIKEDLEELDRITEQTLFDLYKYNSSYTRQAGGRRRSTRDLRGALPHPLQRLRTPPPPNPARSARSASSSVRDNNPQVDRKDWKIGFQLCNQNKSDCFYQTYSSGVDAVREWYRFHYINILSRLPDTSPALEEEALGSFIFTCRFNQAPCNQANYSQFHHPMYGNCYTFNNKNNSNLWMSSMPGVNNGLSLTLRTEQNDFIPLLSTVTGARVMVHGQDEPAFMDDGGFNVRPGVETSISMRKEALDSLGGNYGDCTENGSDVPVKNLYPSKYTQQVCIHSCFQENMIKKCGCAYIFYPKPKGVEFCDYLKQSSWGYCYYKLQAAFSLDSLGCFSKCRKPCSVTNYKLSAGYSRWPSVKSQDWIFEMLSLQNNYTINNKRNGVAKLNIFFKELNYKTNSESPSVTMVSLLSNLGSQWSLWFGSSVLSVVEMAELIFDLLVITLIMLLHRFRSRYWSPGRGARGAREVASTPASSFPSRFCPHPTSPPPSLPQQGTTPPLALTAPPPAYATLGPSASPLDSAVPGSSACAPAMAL
# Sequence (Q9WU38 whole entry): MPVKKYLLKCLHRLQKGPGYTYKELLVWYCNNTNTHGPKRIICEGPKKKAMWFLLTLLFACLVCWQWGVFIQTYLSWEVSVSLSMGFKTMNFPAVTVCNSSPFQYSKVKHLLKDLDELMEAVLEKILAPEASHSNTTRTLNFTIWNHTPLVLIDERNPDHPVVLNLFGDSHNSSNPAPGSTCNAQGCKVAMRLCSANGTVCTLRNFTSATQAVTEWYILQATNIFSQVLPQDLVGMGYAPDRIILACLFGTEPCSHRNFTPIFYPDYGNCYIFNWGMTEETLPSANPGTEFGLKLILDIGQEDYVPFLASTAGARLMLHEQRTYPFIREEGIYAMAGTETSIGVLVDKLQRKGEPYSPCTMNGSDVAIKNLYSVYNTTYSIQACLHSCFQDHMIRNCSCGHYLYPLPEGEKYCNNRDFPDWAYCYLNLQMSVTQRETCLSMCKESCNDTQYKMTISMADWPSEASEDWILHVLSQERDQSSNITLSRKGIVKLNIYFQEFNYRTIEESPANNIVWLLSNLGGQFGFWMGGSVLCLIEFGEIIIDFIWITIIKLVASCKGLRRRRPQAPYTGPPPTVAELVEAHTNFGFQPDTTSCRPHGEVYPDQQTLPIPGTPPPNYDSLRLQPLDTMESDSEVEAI
# Sequence (Q9WU39 whole entry): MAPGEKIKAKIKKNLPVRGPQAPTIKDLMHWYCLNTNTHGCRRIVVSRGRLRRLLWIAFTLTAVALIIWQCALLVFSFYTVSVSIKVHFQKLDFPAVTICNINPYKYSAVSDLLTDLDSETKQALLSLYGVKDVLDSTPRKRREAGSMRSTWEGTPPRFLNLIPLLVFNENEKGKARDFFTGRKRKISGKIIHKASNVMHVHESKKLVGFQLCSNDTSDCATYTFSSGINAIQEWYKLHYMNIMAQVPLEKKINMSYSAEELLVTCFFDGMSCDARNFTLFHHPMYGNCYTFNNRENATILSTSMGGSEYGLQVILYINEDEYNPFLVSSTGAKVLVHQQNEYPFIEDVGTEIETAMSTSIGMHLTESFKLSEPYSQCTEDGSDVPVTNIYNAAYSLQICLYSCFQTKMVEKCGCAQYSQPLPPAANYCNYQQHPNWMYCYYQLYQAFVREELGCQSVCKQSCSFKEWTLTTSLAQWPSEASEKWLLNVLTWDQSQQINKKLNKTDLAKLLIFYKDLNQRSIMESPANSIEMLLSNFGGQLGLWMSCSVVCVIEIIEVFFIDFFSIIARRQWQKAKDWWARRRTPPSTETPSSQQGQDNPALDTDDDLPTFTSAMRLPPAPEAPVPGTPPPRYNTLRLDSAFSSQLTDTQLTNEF
# assay.comment: Ussing Chamber assay (short circuit current, amiloride sensitive I_SC) in M-1 cells
# Type: cell-based
# study.conditions: Mouse kidney M-1 cells, apical application, 37° C.
pIC50: −log10 of the molar value.
quantity.name: pIC50

{"compound": "CCn1c(CNC(=O)c2nc(Cl)c(N)nc2N)[n+](CC)c2ccc(OCCNC(=O)C3CCCN3C(=O)OC(C)(C)C)cc21 (stereo not shown) [Example 4.11]", "quantity.name": "pIC50", "reported": 8.70}

(A) CCN(CC)CC(=O)NCCOc1ccc2c(c1)n(CC)c(CNC(=O)c1nc(Cl)c(N)nc1N)[n+]2CC [Example 4.04]
(B) CC[n+]1c(CNC(=O)c2nc(Cl)c(N)nc2N)n(C[C@H](C)O)c2cc(N(C)C)c(C(=O)N3CCN(C(=O)Cc4ccccn4)CC3)cc21.O=C([O-])C(F)(F)F [Example 4.14]
Asked: Please indicate which entry, A or B , has the lower recorded pIC50 value. Identify your pick by its label.
Given back: B
(B: 7.72, A: 9.00)

(1) CCNC(=O)CN1CCC(NC(=O)c2cc3c(cc2F)[n+](CC)c(CNC(=O)c2nc(Cl)c(N)nc2N)n3CC)CC1 [Example 3.10]
(2) CC[n+]1c(CNC(=O)c2nc(Cl)c(N)nc2N)n(CC2CCCCC2)c2cc(OCCOP(=O)(O)CCC[N+](C)(C)C)ccc21 [Example 1.12]
(3) CCn1c(CNC(=O)c2nc(Cl)c(N)nc2N)[n+](CC)c2cc(C(=O)NC3CCNCC3)c(F)cc21 [Example 6.06]
(4) CCNC(=O)COc1cc2c(cc1C(=O)NC1CCN(C(C)=O)CC1)[n+](CC)c(CNC(=O)c1nc(Cl)c(N)nc1N)n2CC [Example 4.13]
(5) CC[n+]1c(CNC(=O)c2nc(Cl)c(N)nc2N)n(C[C@H](C)O)c2cc(N(C)C)c(C(=O)N3CCN(C(=O)OC(C)(C)C)CC3)cc21.O=C([O-])C(F)(F)F [Example 1.02]
Asked: Kindly order the items shown according to pIC50, from the highest value down. Put the labels in the requested order and write them down.
Given back: 3, 1, 4, 2, 5

(1) CCn1c(CNC(=O)c2nc(Cl)c(N)nc2N)[n+](CC)c2ccc(OCCNC(=O)CN3CCOCC3)cc21 [Example 4.02]
(2) CCNC(=O)c1cc2c(cc1OCC(=O)NCCOC)n(CC)c(CNC(=O)c1nc(Cl)c(N)nc1N)[n+]2CC [Example 3.21]
Asked: So which one has the bigger pIC50 here, 1 or 2 ? Answer with the label corresponding to your selection.
Given back: 1

(P) CCn1c(CNC(=O)c2nc(Cl)c(N)nc2N)[n+](CC)c2ccc(OCC(=O)Nc3cncc(OCc4ccccc4)c3)cc21 [Example 3.13]
(Q) CC[n+]1c(CNC(=O)c2nc(Cl)c(N)nc2N)n(C[C@H](C)O)c2cc(N(C)C)c(C(=O)N3CCNCC3)cc21 [Example 8.01]
(R) CCn1c(CNC(=O)c2nc(Cl)c(N)nc2N)[n+](CC)c2ccc(OCCNC(=O)[C@H](C)NC)cc21.Cl.[Cl-] [Example 6.02]
(S) CCNC(=O)c1cc2c(cc1OCC(=O)O)n(CC)c(CNC(=O)c1nc(Cl)c(N)nc1N)[n+]2CC [Example 7.01]
Asked: Let's sort these by pIC50, smallest first. Go ahead? Rank the items, then write their labels in that order.
Given back: S, Q, P, R
(S: 7.42, Q: 8.22, P: 8.70, R: 9.00)

(I) CC[n+]1c(CNC(=O)c2nc(Cl)c(N)nc2N)n(CCO)c2cc(OCC(=O)NC3CCN(C(C)=O)CC3)ccc21 [Example 1.04]
(II) CCNC(=O)COc1cc2c(cc1C(=O)NC1CCN(C(=O)OC(C)(C)C)CC1)[n+](CC)c(CNC(=O)c1nc(Cl)c(N)nc1N)n2CC [Example 3.23]
(III) CCOCCNC(=O)c1cc2c(cc1N1CCOCC1)n(CC)c(CNC(=O)c1nc(Cl)c(N)nc1N)[n+]2CC.[Cl-] [Example 5.01]
Asked: Hey, quick one: sort these by pIC50, largest value first please. // respond by listing labels in the order requested
Given back: I, III, II
